// provenance: patent US20230151068A1

// values below are reported enrichment score
biological target: biotinylated His-Avi-TEAD (194-411) (UniProt P28347); experiment: SSM screen, enrichment after two rounds of sorting
measured-endpoint: enrichment score

>>> assay_result("GSPDEYIERAKLCCKKGDIQCCLRYFEESGDPNVMLICLFCP (designed binder) [E10L variant of SEQ ID NO: 1]")
-1.83
>>> assay_result("GSPDEYIERAKECCKKGDINCCLRYFEESGDPNVMLICLFCP (designed binder) [Q18N variant of SEQ ID NO: 1]")
-0.16
>>> assay_result("GSPDFYIERAKECCKKGDIQCCLRYFEESGDPNVMLICLFCP (designed binder) [E03F variant of SEQ ID NO: 1]")
0.32
>>> assay_result("GSPDEYIERAKECCKKGDIECCLRYFEESGDPNVMLICLFCP (designed binder) [Q18E variant of SEQ ID NO: 1]")
-0.84
>>> assay_result("GSPDEYIERAKECCVKGDIQCCLRYFEESGDPNVMLICLFCP (designed binder) [K13V variant of SEQ ID NO: 1]")
-1.65
>>> assay_result("GSPDEYIERAKECCKLGDIQCCLRYFEESGDPNVMLICLFCP (designed binder) [K14L variant of SEQ ID NO: 1]")
-0.89
>>> assay_result("GSEDEYIERAKECCKKGDIQCCLRYFEESGDPNVMLICLFCP (designed binder) [P01E variant of SEQ ID NO: 1]")
1.12
>>> assay_result("GSPDEYIEGAKECCKKGDIQCCLRYFEESGDPNVMLICLFCP (designed binder) [R07G variant of SEQ ID NO: 1]")
1.31
>>> assay_result("GSPPEYIERAKECCKKGDIQCCLRYFEESGDPNVMLICLFCP (designed binder) [D02P variant of SEQ ID NO: 1]")
-2.11
>>> assay_result("GSPDEYIERAKWCCKKGDIQCCLRYFEESGDPNVMLICLFCP (designed binder) [E10W variant of SEQ ID NO: 1]")
-1.58
>>> assay_result("GSPNEYIERAKECCKKGDIQCCLRYFEESGDPNVMLICLFCP (designed binder) [D02N variant of SEQ ID NO: 1]")
-0.16
>>> assay_result("GSPDEYITRAKECCKKGDIQCCLRYFEESGDPNVMLICLFCP (designed binder) [E06T variant of SEQ ID NO: 1]")
-0.92
